ASSAY_NAME: Phase 1 SAD/MAD pharmacokinetics of oral ATI-450 in healthy subjects (incl. 80/120 mg BID extension)
Assay type: in vivo, human
CONDITION_DESCRIPTION: both sexes, human, plasma, po, 100 mg, single oral dose 100 mg, fasted; read-out: Cmax
MEASURED_METRIC: Cmax
Please make sure the unit comes right after the number.

Supply measured Cmax of Cc1cnc(-c2ccnc(C(C)(C)O)n2)cc1-n1c(C)cc(OCc2ncc(F)cc2F)c(Cl)c1=O (single isomer, unassigned) [ATI-450] in your reply. 426 ng/mL

----------
ASSAY_NAME: Phase 1 SAD/MAD pharmacokinetics of oral ATI-450 in healthy subjects (incl. 80/120 mg BID extension)
Type: in vivo, human
CONDITION_DESCRIPTION: both sexes, human, plasma, oral, 10 mg, 10 mg BID, day 2; read-out: Ctrough
MEASURED_METRIC: concentration at 2 day (ng/mL)
Give just the numeric value; ng/mL need not be written.

Supply measured concentration at 2 day of Cc1cnc(-c2ccnc(C(C)(C)O)n2)cc1-n1c(C)cc(OCc2ncc(F)cc2F)c(Cl)c1=O (single isomer, unassigned) in your reply. 10.1

----------
Test system: IL-6
ASSAY_NAME: LPS stimulated IL-6 production in human whole blood
Type: cell-based
CONDITION_DESCRIPTION: Human Whole Blood; LPS, 100 ng/mL, 4 or 24 hr; read-out: IC50, IL-6
MEASURED_METRIC: IC50
Please make sure the unit comes right after the number.

Supply measured IC50 of Cc1cnc(-c2ccnc(C(C)(C)O)n2)cc1-n1c(C)cc(OCc2ncc(F)cc2F)c(Cl)c1=O (single isomer, unassigned) in your reply. 135 nM

----------
ASSAY_NAME: 13-week oral administration non-clinical safety study, rat
Type: in vivo
CONDITION_DESCRIPTION: male, rat, in vivo; 30 mg/kg/day oral, study day 88, males
MEASURED_METRIC: Cmax
Please make sure the unit comes right after the number.

Supply measured Cmax of Cc1cnc(-c2ccnc(C(C)(C)O)n2)cc1-n1c(C)cc(OCc2ncc(F)cc2F)c(Cl)c1=O (single isomer, unassigned) in your reply. 3.26 µg/mL

----------
ASSAY_NAME: 13-week oral administration non-clinical safety study, rat
Type: in vivo
CONDITION_DESCRIPTION: female, rat, in vivo; 30 mg/kg/day oral, study day 88, females
Procedure: Study Design. […] Rats were administered 0 (vehicle), 3, 10 and 30 mg/kg/day, and Mini-pigs were administered 0 (vehicle) 10, 30 and 60 mg/kg/day
MEASURED_METRIC: Cmax (µg/mL)
Give just the numeric value; µg/mL need not be written.

Supply measured Cmax of Cc1cnc(-c2ccnc(C(C)(C)O)n2)cc1-n1c(C)cc(OCc2ncc(F)cc2F)c(Cl)c1=O (single isomer, unassigned) in your reply. 5.44

----------
ASSAY_NAME: 13-week oral administration non-clinical safety study, rat
Format: in vivo
CONDITION_DESCRIPTION: male, rat, in vivo; 30 mg/kg/day oral, study day 88, males; read-out: AUC0-24
MEASURED_METRIC: AUC(0-t) (ng·h/mL)
Give just the numeric value; ng·h/mL need not be written.

Supply measured AUC(0-t) of Cc1cnc(-c2ccnc(C(C)(C)O)n2)cc1-n1c(C)cc(OCc2ncc(F)cc2F)c(Cl)c1=O (single isomer, unassigned) in your reply. 36400
